Test: compound binding in COS7 lysate, probe aLAP1, primary screen, cell lysate, small-molecule microarray (AID 1124);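 note: lysate comes from COS7 cells expressing LAP1 and is applied at 0.3 µg/mL; score merges spot fluorescence near 667 nm with signal-to-noise over triplicate slides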
Details: probe aLAP1, fluorescence, higher = more signal
measurement kind: composite z-score
Numbers only.

Answered cases to consult:
molecule: C=C(COC)/C(=C/C[C@H](OC(=O)c1ccncc1)c1ccc(OCCO)cc1)c1cnc2ccccc2c1
composite z-score: 0.334
--
molecule: COc1ccc(C(O)C2C=CC3C(=O)NC(=O)C3N2Nc2ccccn2)cc1 (stereo unspecified)
composite z-score: 0.348
--
molecule: COc1ccc(CCNC(=O)[C@@H]2c3ccccc3C(=O)N(C3Cc4ccccc4C3)[C@H]2c2ccc(CO)cc2)cc1
composite z-score: 0.0554
--
molecule: C=CCN1C(=O)[C@@]2(O[C@@H](CCO)[C@H]([Si](C)(C)c3ccc(OC)cc3)[C@H]2C)c2cc(NC(=O)c3ccc(OC)cc3)ccc21
composite z-score: 0.0327
--
molecule: C=CCN1C(=O)[C@]2(O[C@H](CCO)[C@@H]([Si](C)(C)c3ccc(OC)cc3)[C@@H]2C)c2cc(N3CCCCC3=O)ccc21
composite z-score: 0.279
--
molecule: C=C(CCCC)C(=O)CC[C@@H](OC(=O)c1cccnc1)c1ccc(CO)o1
composite z-score: 0.194
--
molecule: COCCOC(=O)N1C(=O)[C@@]2(c3cc(C#CC4=CCCCC4)ccc31)[C@H](c1ccc(O)cc1)N1[C@H](c3ccccc3)[C@H](c3ccccc3)OC(=O)[C@H]1[C@@H]2C(N)=O
composite z-score: 0.45
--
molecule: O=C1c2ccccc2[C@](Cc2ccccc2I)(C(=O)NC2CC2)[C@H](c2ccc(CO)cc2)N1C1CCCCC1
composite z-score: 1.49

Provide composite z-score values for the following items, in order.
1. COCCOC(=O)N1C(=O)[C@@]2(c3cc(C#CCCO)ccc31)[C@H](C(=O)Nc1nc3ccccc3s1)[C@H]1C(=O)O[C@H](c3ccccc3)[C@H](c3ccccc3)N1[C@@H]2c1ccc(OCCO)cc1
2. COc1cc2c(cc1O)C=[N+](Cc1cccc(OC(F)(F)F)c1)CC2
3. Cc1ccc(S[C@]2(C(=O)NCCN3CCOCC3)CC(=O)N(Cc3ccccc3Cl)[C@@H]2c2ccc(CO)cc2)cc1

RESULT:
1: 0.225; 2: 0.173; 3: 0.0897

Provide composite z-score values for the following items, in order.
1. CC(=O)N1Cc2ccccc2C[C@@]2(COC(c3ccc(OCCCO)cc3)=N2)C1=O
2. C=CCC(OC(C)=O)[C@@H]1[C@@H](N(Cc2ccc(-c3ccccc3)cc2)C(=O)Cc2ccc(F)cc2)c2cc(OCCCO)ccc2N1C(=O)c1ccc(-c2ccccc2)cc1 (stereo partly specified)
3. COc1ccc(NN2C(C(O)c3ccc([N+](=O)[O-])cc3)C=CC3C(=O)N(C4CCCCC4)C(=O)C32)cc1 (stereo unspecified)
4. CCOC(=O)C[C@H]1[C@H](OC(=O)Cc2ccc3c(c2)OCO3)[C@@H](NC(=O)c2ccc(-c3ccccc3)cc2)c2cc(OCCCO)ccc2N1C(=O)Cc1ccc(OC)cc1
5. O=C(NCc1ccccc1)[C@@H]1c2ccccc2C(=O)N(CC23CC4CC(CC(C4)C2)C3)[C@H]1c1ccc(CO)cc1

RESULT:
1. 0.16
2. 0.0362
3. -0.0699
4. 0.597
5. 1.17
